From: paper PMC10058761

- experimental target: human FABP3 (Homo sapiens, UniProt P05413)
- Construct: His-tag (N); TEV cleavage site (N); made in house; host or cells: E. coli BL21(DE3)
- Sequence (P05413 whole entry): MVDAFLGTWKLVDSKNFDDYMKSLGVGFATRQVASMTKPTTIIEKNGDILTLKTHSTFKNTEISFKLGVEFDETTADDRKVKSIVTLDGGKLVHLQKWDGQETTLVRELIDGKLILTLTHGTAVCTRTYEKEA
- assay notes: ITC assay of ligand binding to apo-FABP3
- assay setup: KPi pH 7.6, 25 °C, without TX; protein assumed 100% active and delipidated
quantity name: N (stoichiometry)

Solved cases below.
| molecule | N (stoichiometry) |
| --- | --- |
| CCCCCCCCCCCCCC(=O)O[C@H](CC(=O)O)C[N+](C)(C)C.[Cl-] | 0.5 |
| CC/C=C\C/C=C\C/C=C\C/C=C\C/C=C\CCCC(=O)O[C@H](CC(=O)O)C[N+](C)(C)C | 1.0 |

I: CCCCCCCC(=O)O [C8:0, caprylate]
II: CCCCCCCC/C=C\CCCCCCCC(=O)O[C@H](CC(=O)O)C[N+](C)(C)C.[Cl-]
Of I and II , whose reported N (stoichiometry) is numerically smaller? Field: selected label. Fill in the label of the entry you choose.
II
